Where do these numbers come from? They come from paper PMC4113814.

- System: IL-1β
- RUN_DESCRIPTION: IL-1β release in supernatants of LPS-treated primary microglial cells (ELISA)
- Format: cell-based, Wistar rats
- MEASUREMENT_CONDITIONS: Rattus norvegicus; inhibition of LPS-induced cytokine release, 72 h; read-out: IL-1β IC50
ASSAY_ENDPOINT: IC50

// worked examples, IC50 included
Task: Using known records, supply IC50 for C=C(C)[C@@H]1C/C=C2\C(=O)O[C@@H](C[C@]3(C)CC(=O)[C@H](CC(=O)C1)O3)[C@@H]2O [Compound 1, 5-epi-sinuleptolide]
Result: > 12.5 µg/mL

Task: Using known records, supply IC50 for C=C(C)[C@@H]1CC(=O)[C@H]2[C@H](C1)[C@@H]1C(=O)O[C@@H]3C[C@@]4(C)O[C@H]2C(=O)[C@@H]4[C@H]13 [Compound 6, ineleganolide]
Result: > 12.5 µg/mL

Task: Using known records, supply IC50 for C=C(C)[C@@H]1C/C=C2\C(=O)O[C@@H](C[C@]3(C)CC(=O)[C@@H](CC(=O)C1)O3)[C@@H]2O [Compound 2, sinuleptolide]
Result: 0.5 µg/mL

# input for lookup
Task: Using known records, supply IC50 for C=C(C)C1CCC23OC2C(CC2(C)CC(=O)C(CC(=O)C1)O2)OC3=O (stereo not shown) [Compound 3, scabrolide D]
Result: > 12.5 µg/mL
